Source listed as PubChem BioAssay AID330.

tested on: P388 leukemia ip, CD2F1 mice, survival T/C; assay: NCI In Vivo Anticancer Drug Screen. Data for tumor model P388 Leukemia (intraperitoneal) in CD2F1 (CDF1) mice; conditions: endpoint: median survival time; dose: 50.0 mg/kg/injection; schedule: Q01DX009 (ip); vehicle: Klucel (hydroxypropylcellulose) (HPC); higher = longer survival
Toxic doses and inconclusive results are not listed.
observable: T/C

**Query** Which measured T/C value corresponds to CCCS(=O)(=O)N/N=C(\C)c1cccs1 ?
**Result** 95 % of control

**Query** Param item: CC(C)N(C(C)C)C(C(=O)OCC(O)C(O)C(O)C(O)C(=O)O)N(C(C)C)C(C)C (stereo not drawn)
**Result** 113 % of control

**Query** Param item: c1onc2c1C1CC3CC(C1)CC2C3
**Result** 96 % of control

**Query** Param item: CN(C/C=C/CN(C)N=O)N=O
**Result** 96 % of control

**Query** Param item: O=C(/C=C/c1ccccc1)C1CCCCC1
**Result** 107 % of control

**Query** Param item: COc1ccccc1/C=N\NC(=O)C(=O)N/N=C\c1ccccc1OC
**Result** 86 % of control

**Query** Param item: O=C1CC(=O)N2C=CC=CC2N1 (stereo not drawn)
**Result** 106 % of control

**Query** Param item: BrC/C(=N\N=C(\CBr)c1ccc(Br)cc1)c1ccc(Br)cc1
**Result** 100 % of control

**Query** Param item: O=[N+]([O-])c1ccc(SC(=S)N(c2ccccc2)c2ccccc2)c([N+](=O)[O-])c1
**Result** 102 % of control

**Query** Param item: CC1(C)OP(=O)(O)c2ccccc21
**Result** 100 % of control

**Query** Param item: O=c1[nH]c(=O)n(Cl)c(=O)n1Cl
**Result** 116 % of control

**Query** Param item: CN=C1CN=C(OP(=O)(N2CCOCC2)N2CCOCC2)c2cc(Cl)ccc2N1
**Result** 98 % of control

**Query** Param item: Cc1cccc(NC(=O)Oc2ccc(Cl)c3cccnc23)c1
**Result** 112 % of control

**Query** Param item: CC(C)(C)C1CCC(P(C)(C)=S)CC1 (stereo not drawn)
**Result** 94 % of control

**Query** Param item: Nc1nc(F)nc2c1ncn2C1OC(COP(=O)(O)O)C(O)C1O (stereo not drawn)
**Result** 120 % of control

**Query** Param item: Cn1c(-c2ccccc2)cc2cc(CN)ccc21
**Result** 100 % of control

**Query** Param item: O=P(O)(O)SP(=O)(O)O.[Co]
**Result** 105 % of control

**Query** Param item: CC(N)(CSCc1ccccc1)C(=O)O (stereo not drawn)
**Result** 103 % of control
